- tested_system: indoleamine 2, 3-dioxygenase (IDO1) (Homo sapiens, UniProt P14902)
- Sequence (P14902 whole entry): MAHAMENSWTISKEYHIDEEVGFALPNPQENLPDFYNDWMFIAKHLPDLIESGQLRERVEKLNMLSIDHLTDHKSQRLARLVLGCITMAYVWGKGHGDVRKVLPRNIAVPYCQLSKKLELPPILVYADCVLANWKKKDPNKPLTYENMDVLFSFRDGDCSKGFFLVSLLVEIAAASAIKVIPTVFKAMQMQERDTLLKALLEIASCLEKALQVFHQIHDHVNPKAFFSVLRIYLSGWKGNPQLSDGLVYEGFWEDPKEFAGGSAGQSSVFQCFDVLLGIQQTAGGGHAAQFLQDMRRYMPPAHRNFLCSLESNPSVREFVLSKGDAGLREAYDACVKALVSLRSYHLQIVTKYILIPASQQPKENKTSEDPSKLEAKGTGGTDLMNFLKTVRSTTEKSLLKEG
- procedure_details: IDO1 PBMC RapidFire MS assay (kynurenine detection by mass spectrometry)
- Assay type: cell-based
- Parameters: to induce the expression of indoleamine 2, 3-dioxygenase (IDO1); host or cells: human PBMC stimulated with IFN-gamma and LPS
- condition: human PBMC stimulated with IFN-γ and LPS, 2 days, pIC50, read-out: PBMC PXC50 (converted)
Please respond with reported IC50 for every item in the list.
Give the value in nM but do not write nM after it.

GET /values?readout=IC50&item= CC(C)CN(c1ccc([C@H](C)CC(=O)O)cc1Nc1n[nH]c(C(F)(F)F)n1)C1CCOCC1
10

Next record, please: CC(C)CN(c1ccc([C@H](C)Cc2nnn[nH]2)cc1Nc1nc(Cl)ns1)C1CCCCC1
5.01

Repeat for the following molecule: CO[C@H]1CC[C@H](N(CC(C)C)c2ccc([C@H](C)CC(=O)O)cc2Nc2nc(Cl)ns2)CC1
2

====

- tested_system: ePL tagged IDO1 (Homo sapiens)
- Construct: expressed in transfected cells; host or cells: HeLa cells transduced with BacMam virus
- Sequence (P14902 whole entry): as above
- procedure_details: CETSA (Cellular Thermal Shifting assay) in Hela cells
- Type: binding
- condition: BacMam ePL tagged IDO1, 3 hours at 37° C., heated at 53° C. for 3 min, read-out: pXC50_2 (converted)
Kindly state log10 EC50 for each of the entries shown.
Field: value | Transform: log10 | Quantity: EC50 | Unit: nM

Item CC(C)CN(c1ccc([C@H](C)CC(=O)O)cc1Nc1ccc(Cl)nc1)C1CCOCC1 has what recorded log10 EC50?
1.32

Okay, and CC(C)CC(=O)N1CCC(N(CC(C)C)c2ccc([C@H](C)CC(=O)O)cc2Nc2nc(C(F)(F)F)ns2)CC1 ?
1.70

Also, CC(C)CN(c1ccc([C@H](C)CC(=O)O)cc1Nc1ccc(C#N)cn1)C1CCOCC1 please.
2.50

Moving on to the next compound: CC(C)CN(c1ccc([C@H](C)CC(=O)O)cc1Nc1ccc(Cl)nn1)C1CCOCC1
2.28

Input CC(C)CN(c1ccc([C@H](C)CC(=O)O)cc1Nc1nnc(C2CC2)s1)C1CCOCC1
2.37

====

- tested_system: indoleamine 2, 3-dioxygenase (IDO1) (Homo sapiens)
- procedure_details: IDO1 HeLa RapidFire MS assay (kynurenine detection by mass spectrometry)
- Assay type: cell-based
- Set-up: to induce the expression of indoleamine 2, 3-dioxygenase (IDO1)
- condition: HeLa cells, pIC50, read-out: IDO1_HELA_PXC50 (converted)
Label True when IC50 < 500 nM; otherwise False.

Does COc1nsc(Nc2cc(C(C)CC(=O)O)ccc2N(CC(C)C)CC(C)C)n1 (centres unmarked) have IC50 strictly under 500 nM?
False

Also need CC(C)CN(c1ccc(-c2ccccc2C(=O)O)cc1Nc1nc(C(F)(F)F)ns1)C1CCOCC1 , thanks.
True

Same for CC(C)CN(CC(C)C)c1ccc(C(C)CC(=O)O)cc1NC1CCC(C(=O)O)CC1 (centres unmarked)
False

Next entry: CC(C)CN(c1ccc([C@H](C)CC(=O)O)cc1NC1CCCC1)C1CCCCC1
True

CC(C)CN(c1ccc(C(C)OCC(=O)O)cc1Nc1ccc(C(N)=O)cn1)C1CCCCC1 (centres unmarked) , same question.
False

Note, next up: COCc1nnc(Nc2cc([C@H](C)CC(=O)O)ccc2N(CC(C)C)C2CCOCC2)[nH]1
False

Quick one: Cc1nc(Cc2ccccc2)c(Nc2cc(C(C)CC(=O)O)ccc2N(CC(C)C)CC(C)C)s1 (centres unmarked)
False
